test: Plasma kinetics in rat following intravenous and oral administration; format: in vivo, Sprague Dawley rats; conditions: male, Sprague Dawley, rat, plasma, iv, 10 mg/kg, single intravenous 10 mg/kg, male rats, 6 h, individual animals; read-out: Sample Concentration in plasma

| COMPOUND | concentration at 6 h, ng/mL |
| --- | --- |
| N=C(N)NN=CC=Cc1cccn1-c1ccccc1[N+](=O)[O-] [Compound 2, acetate] | 83.9 |
| N=C(N)NN=CC=Cc1cccn1-c1ccc(Cl)cc1 [Compound 1, acetate] | 140 |
| N=C(N)NN=CC=Cc1cccn1-c1ccccc1Br [Compound 3, acetate] | 103 |

---

experiment: Plasma kinetics in rat following intravenous and oral administration; assay type: in vivo, Sprague Dawley rats; conditions: male, Sprague Dawley, rat, plasma, iv, 10 mg/kg, intravenous 10 mg/kg, male rats, Arithmetic Mean; read-out: AUC0-t
READOUT KIND: AUC(0-t)

| COMPOUND | OBSERVED |
| --- | --- |
| N=C(N)NN=CC=Cc1cccn1-c1ccccc1[N+](=O)[O-] [Compound 2, acetate] | 1880 ng·h/mL |
| N=C(N)NN=CC=Cc1cccn1-c1ccccc1Br [Compound 3, acetate] | 2410 ng·h/mL |
| N=C(N)NN=CC=Cc1cccn1-c1ccc(Cl)cc1 [Compound 1, acetate] | 3600 ng·h/mL |

---

experiment: Plasma kinetics in rat following intravenous and oral administration; format: in vivo, Sprague Dawley rats; details: male, Sprague Dawley, rat, plasma, po, 10 mg/kg, oral 10 mg/kg, male rats, Geometric mean
READOUT KIND: AUC(0-inf) (ng·h/mL)

| COMPOUND | UNIT INFO | OBSERVED |
| --- | --- | --- |
| N=C(N)NN=CC=Cc1cccn1-c1ccccc1Br [Compound 3, acetate] | ng·h/mL | 837 |

---

experiment: Plasma kinetics in rat following intravenous and oral administration; assay type: in vivo, Sprague Dawley rats; settings: male, Sprague Dawley, rat, plasma, iv, 10 mg/kg, single intravenous 10 mg/kg, male rats, 0.25 h, mean of 3; read-out: Mean Concentration in plasma
List of concentration at 0.25 h values.

| MOLECULE | concentration at 0.25 h |
| --- | --- |
| N=C(N)NN=CC=Cc1cccn1-c1ccccc1[N+](=O)[O-] [Compound 2, acetate] | 724 ng/mL |
| N=C(N)NN=CC=Cc1cccn1-c1ccc(Cl)cc1 [Compound 1, acetate] | 705 ng/mL |
| N=C(N)NN=CC=Cc1cccn1-c1ccccc1Br [Compound 3, acetate] | 780 ng/mL |

---

test: Plasma kinetics in rat following intravenous and oral administration; assay type: in vivo, Sprague Dawley rats; details: male, Sprague Dawley, rat, plasma, iv, 10 mg/kg, intravenous 10 mg/kg, male rats, individual animals
List of AUC(0-inf) values.

| COMPOUND | UNIT INFO | AUC(0-inf) |
| --- | --- | --- |
| N=C(N)NN=CC=Cc1cccn1-c1ccc(Cl)cc1 [Compound 1, acetate] | ng·h/mL | 4180 |
| N=C(N)NN=CC=Cc1cccn1-c1ccccc1[N+](=O)[O-] [Compound 2, acetate] | ng·h/mL | 1750 |
| N=C(N)NN=CC=Cc1cccn1-c1ccccc1Br [Compound 3, acetate] | ng·h/mL | 3090 |

This collection of values is drawn from patent US8058306B2.
